target-or-system: Potassium voltage-gated channel subfamily A member 3 (Mus musculus, UniProt P16390)
Sequence (P16390 whole entry): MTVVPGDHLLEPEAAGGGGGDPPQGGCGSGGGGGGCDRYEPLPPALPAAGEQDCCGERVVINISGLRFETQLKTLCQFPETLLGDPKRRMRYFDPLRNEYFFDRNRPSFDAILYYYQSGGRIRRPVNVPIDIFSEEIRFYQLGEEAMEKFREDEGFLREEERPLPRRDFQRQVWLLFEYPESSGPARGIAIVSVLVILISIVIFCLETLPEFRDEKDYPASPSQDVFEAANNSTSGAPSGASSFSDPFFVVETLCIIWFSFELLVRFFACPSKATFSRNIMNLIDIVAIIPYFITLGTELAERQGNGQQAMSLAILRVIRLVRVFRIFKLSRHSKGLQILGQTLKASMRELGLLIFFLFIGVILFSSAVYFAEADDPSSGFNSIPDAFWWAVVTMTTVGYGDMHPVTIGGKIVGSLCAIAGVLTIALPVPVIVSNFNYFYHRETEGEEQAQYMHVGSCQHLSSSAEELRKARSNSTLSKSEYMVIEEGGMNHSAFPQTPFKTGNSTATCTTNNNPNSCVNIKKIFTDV
method-summary: Effective concentration against murine voltage-gated potassium channel subunit Kv1.3 expressed in L929 cells using patch clamp
quantity-name: pEC50
Just the number, please; pEC50 means minus log10 of the concentration in mol/L.

Q: Request: pEC50, test system Potassium voltage-gated channel subfamily A member 3 (Mus musculus, UniProt P16390), entry "NCCCCNC(=O)c1ccc(CN=C(N)N)c2ccn(CCc3ccccc3)c12"
Result: 4.12
